assay_overview: protein stability index of a GFP-peptide fusion (yeast GPS) (PSI 1-4); higher = more stable; sorted into four equal gates, so the index is relative within each strain
protocol_conditions: pdr5∆
observation_type: protein stability index

Solved entries:
entry_sequence: LENKENGLLNEISRLKT [SMC2]
protein stability index: 3.29
--
entry_sequence: QDKIELSEEETLLVIRR [SNF2]
protein stability index: 2.27
--
entry_sequence: LSRNGKPVMEVTSSFFY [FAS1]
protein stability index: 2.99
--
entry_sequence: VQNSTLAQLTSKLIPEV [RPS1B]
protein stability index: 2.73

Please state, for each entry, its recorded protein stability index.
1. KDYSQILKEEFPKIDSL [RPN5]
2. AGNTTTGGGLFGSKPTG [YGL172W/NUP49]

1. 2.35
2. 2.18

Please go through the list and note protein stability index for each sequence.
1. FARLSRLLSLWEVFQMA [RPC82]
2. VETKLETKVDELRYQSH [DSN1]

1: 1.97; 2: 3.22

* * *

assay_overview: protein stability index of a GFP-peptide fusion (yeast GPS) (PSI 1-4); higher = more stable; sorted into four equal gates, so the index is relative within each strain
protocol_conditions: san1∆
Use 3 as the dividing line for protein stability index, with the line itself on the yes side and lower values as no.

Has KNYLKNYILNFKQSNSE [CDC53] a recorded protein stability index greater than or equal to 3?
no

Exam item: decide whether the reported protein stability index for KGVYLILSEILCQINKC [YML103C/NUP188] is at least 3.
no

Form field: protein stability index at least 3? Entry: LPDELTLSYDDISAAIV [DLS1]
no

Threshold query (protein stability index >= 3) on IMDNDPVLFNRQPSLHK [RPO21]
no

Would you say QMAVHIATDGGRICRPL [RET1] shows protein stability index at minimum 3?
no

* * *

assay_overview: protein stability index of a GFP-peptide fusion (yeast GPS) (PSI 1-4); higher = more stable; sorted into four equal gates, so the index is relative within each strain
protocol_conditions: pdr5∆
observation_type: protein stability index
Answers are plain numbers.

Worked examples follow.
entry_sequence: NVDGNIKIVYALTTIKG [RPS18A]
protein stability index: 1.49

entry_sequence: LLSIPISCPLIGVIQLA [FAS1]
protein stability index: 1.27

entry_sequence: GSFKVVKGTNISEKDLV [RPO31]
protein stability index: 3.36

entry_sequence: SINGGIVVAMTGKDCVA [PUP3]
protein stability index: 2.39

Parameters: items (list). Returns: protein stability index for each item.
1. RNFDTHENYIQDDDFPL [MCD1]
2. NTKVPVDIVNQWFLQYQ [YML103C/NUP188]
3. LYVPHSENRFPGWDFET [RPL5]
4. EASSLGYLDDSEILIIS [IRR1]
5. QSRVPTSLTSIKWENAF [PRP8]
6. HPKLIKNKSGKIFVETK [FAS1]
7. YCDPNTQEIRPVNTGVL [RRP40]

[2.8, 2.15, 2.89, 1.85, 3.3, 2.76, 2.89]

* * *

assay_overview: protein stability index of a GFP-peptide fusion (yeast GPS) (PSI 1-4); higher = more stable; sorted into four equal gates, so the index is relative within each strain
protocol_conditions: ubr1∆
observation_type: protein stability index
Answers are plain numbers.

entry_sequence: KMFIQRILAMCVKNHGQ [YCS4]
protein stability index: 1.92

Hey, quick one: what's protein stability index for each of these?
1. NSGKQQYYRGLPLYEKN [SWP82]
2. CVKAIEALFQSRPDILS [YCG1]
3. CKDDVQLQKILESLKPI [MTW1]
4. IYINKSVPTNSADAPNP [RET1]
5. NNTHVGRQFCNRLSRIH [YLR018C/POM34]
6. QEHNIQDSNVMPGSQIN [SNF2]
7. IITNINAIFLSSEQDYS [YCG1]
8. KTIEVTAEINCFMHLLV [RPN3]

1. 3.01
2. 3.05
3. 2.87
4. 3.29
5. 1.95
6. 3.31
7. 2.89
8. 1.67

Cited source: the supplement of paper PMC9732359
